System: NCI-H460 lung
Your answer must be one of the following: active, inactive

COMPOUND: CC(=O)NC(CCc1ccc(Cl)c(Cl)c1)c1cccc(O)c(=O)c1 (stereo not given)
DISCRETE LABEL: active
--
COMPOUND: CC(=O)CCC[C@@H](C)[C@@H]1O[C@H]([C@@]2(C)CCC(=O)O2)CC2[C@H]1OC(=O)C21CC1 (stereo not given in full)
DISCRETE LABEL: inactive
--
COMPOUND: Cc1c(Br)c(Br)c2c3c1nc(N1CCNCC1)n3CCC2
DISCRETE LABEL: inactive
--
COMPOUND: CN1CCC(=C(c2ccc(Cl)cc2)c2ccccn2)CC1
DISCRETE LABEL: inactive

Which outcome did this test record for the compound Cc1ccc2c(-c3ccnc(Nc4cccc(C(F)(F)F)c4)n3)c(-c3ccccc3)nn2n1 ?
inactive

Numbers sourced from PubChem BioAssay (NCI).
